The reported measurements were obtained from PubChem BioAssay (NCATS).

system: Tov-21-G; experiment: Primary qHTS to identify gynecologic anti-cancer compounds using libraries of approved drugs and bioactive compounds (AID 1345084); details: Gynecologic cancer cell panel viability, ATPlite luminescence, 48 h; series mostly up to 57.5 µM; also: % is scaled to controls: 0 for no effect and ±100 for the full control effect; nearly all actives have a fitted effect of over 55% in size
Records with an inconclusive call do not appear. The source made the active and inactive calls. Calls follow the shape of the dose curve; as a rule, active = well fitted cell-killing curve with a large enough effect; inconclusive = small, poorly fitted or top-dose-only effect, or effect the other way; inactive = flat fitted curve, though single readings scatter. Where a SMILES comes first, the peptide text is derived from it. [ ]: non-standard residue; d: D form. Ala(indol-2-yl) = N[C@@H](Cc1cc2ccccc2[nH]1)C(=O)O; Aib = CC(C)(N)C(=O)O
readout: activity change, negative = cytotoxicity

Sample answers from the record:
Need activity change, negative = cytotoxicity of CC(C)(NC(=O)[C@@H](N)Cc1ccc(O)cc1)C(=O)N[C@@H](Cc1cc2ccccc2[nH]1)C(=O)N[C@@H](Cc1ccccc1)C(=O)O (H-Y[Aib][Ala(indol-2-yl)]F-OH) , thanks.
16.4% [at 11.6 µM] (inactive)

Need activity change, negative = cytotoxicity of C[C@H]1CC[C@@H]2[C@@H](C)[C@H]3[C@H](C[C@H]4[C@@H]5CC=C6CC(O[C@@H]7O[C@H](CO)[C@@H](O)[C@H](O[C@@H]8O[C@H](CO)[C@@H](O)[C@H](O)[C@H]8O)[C@@H]7O[C@@H]7O[C@@H](C)[C@H](O)[C@@H](O)[C@H]7O)CC[C@]6(C)[C@H]5CC[C@]34C)N2C1 (some centres undefined) , thanks.
-1.56% [at 11.6 µM] (inactive)

Need activity change, negative = cytotoxicity of Nc1ncnc2c1ncn2[C@@H]1O[C@@H]2COP(O)(=S)O[C@H]2[C@H]1O (some centres undefined) , thanks.
2.4% [at 11.6 µM] (inactive)

Further cases:
Need activity change, negative = cytotoxicity of CN(CC[C@H](N)CC(=O)N[C@H]1C=C[C@@H](n2ccc(N)nc2=O)O[C@@H]1C(=O)O)C(=N)N , thanks.
2.99% [at 11.6 µM] (inactive)
